- Tested on: 454973-116-R2-J3-PDC complex spheroid viability
- experiment description: Anticancer human tumor 454973-116-R2-J3-PDC patient-derived pancreatic carcinoma cell line growth inhibition [POLQ]
- reported conditions: second compound 3.16 µM; first compound 0.316 µM; stronger effect = lower value
experimental endpoint: viability, T/C (%)
Give your result in % as a bare value.

Some entries whose results are on file:
CCc1cc2c(N3CCc4c(cc(Cn5ccnc5)cc4-c4cn(C)nc4C(F)(F)F)C3=O)cc(C)nc2c(OC)n1 + Cc1cccc(N(C)C(=O)C2C(O)CCN2c2nc(C)cc(C(F)(F)F)c2C#N)c1	84.1
CC1COCCN1c1cc(C2(O)CC3CCC(C2)O3)c2cnn(-c3ccn[nH]3)c2n1 (stereo not given) + COC1C(OC(N)=O)C(O)C(Oc2ccc3c(O)c(NC(=O)c4ccc(O)c(CC=C(C)C)c4)c(=O)oc3c2C)OC1(C)C	32.6
COc1cc2cc(C(=O)CCC(=O)O)sc2cc1OC + COC1C(OC(N)=O)C(O)C(Oc2ccc3c(O)c(NC(=O)c4ccc(O)c(CC=C(C)C)c4)c(=O)oc3c2C)OC1(C)C	105
CCc1cc2c(N3CCc4c(cc(Cn5ccnc5)cc4-c4cn(C)nc4C(F)(F)F)C3=O)cc(C)nc2c(OC)n1 + Nc1ccc(C#CCN(C(=O)Cc2ncc(C(F)(F)F)cc2C(F)(F)F)c2ccc(F)cc2)nn1	90.8
COc1cccc2c1C(=O)c1c(O)c3c(c(O)c1C2=O)CC(O)(C(=O)CO)CC3OC1CC(N)C(O)C(C)O1 (stereo not given) + Nc1ccc(C#CCN(C(=O)Cc2ncc(C(F)(F)F)cc2C(F)(F)F)c2ccc(F)cc2)nn1	14.6
COc1cc(C2c3cc4c(cc3C(OC3OC5COC(C)OC5C(O)C3O)C3COC(=O)C23)OCO4)cc(OC)c1O (stereo not given) + COC1C(OC(N)=O)C(O)C(Oc2ccc3c(O)c(NC(=O)c4ccc(O)c(CC=C(C)C)c4)c(=O)oc3c2C)OC1(C)C	96.6
COc1cccc(OCCCN)c1-c1cc(Nc2cnc(C#N)cn2)n[nH]1 + Nc1ccc(C#CCN(C(=O)Cc2ncc(C(F)(F)F)cc2C(F)(F)F)c2ccc(F)cc2)nn1	5.91
CCc1cc2c(N3CCc4c(cc(Cn5ccnc5)cc4-c4cn(C)nc4C(F)(F)F)C3=O)ccnc2c(OC)n1 + Cc1cccc(N(C)C(=O)C2C(O)CCN2c2nc(C)cc(C(F)(F)F)c2C#N)c1	91.2

Reported viability, T/C ( CCc1cc2c(N3CCc4c(cc(Cn5ccnc5)cc4-c4cn(C)nc4C(F)(F)F)C3=O)ccnc2c(OC)n1 + COC1C(OC(N)=O)C(O)C(Oc2ccc3c(O)c(NC(=O)c4ccc(O)c(CC=C(C)C)c4)c(=O)oc3c2C)OC1(C)C ) = 97.8

Reported viability, T/C ( C=CCn1c(=O)c2cnc(Nc3ccc(N4CCN(C)CC4)cc3)nc2n1-c1cccc(C(C)(C)O)n1 + Nc1ccc(C#CCN(C(=O)Cc2ncc(C(F)(F)F)cc2C(F)(F)F)c2ccc(F)cc2)nn1 ) = 72.7

---

- System: 454973-116-R2-J3-PDC complex spheroid viability
- experiment description: Anticancer human tumor 454973-116-R2-J3-PDC cell line growth inhibition [POLQ];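 also: spheroids exposed to drugs for seven days before measurement; percent viability relative to DMSO vehicle control wells taken as 100%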
- reported conditions: second compound 3.16 µM; first compound 0.0316 µM; stronger effect = lower value
// values below are reported viability, T/C
Give your result in % as a bare value.

Some entries whose results are on file:
O=c1[nH]cc(F)c(=O)[nH]1 + Cc1cccc(N(C)C(=O)C2C(O)CCN2c2nc(C)cc(C(F)(F)F)c2C#N)c1	116
CC(C)n1c(=O)n(C)c2cnc3cc(F)c(-c4ccc(OCCCN5CCCCC5)nc4)cc3c21 + COC1C(OC(N)=O)C(O)C(Oc2ccc3c(O)c(NC(=O)c4ccc(O)c(CC=C(C)C)c4)c(=O)oc3c2C)OC1(C)C	118

Please examine the following record next.
Reported viability, T/C ( C=CC(=O)N1CCN(c2nc(=O)n(-c3c(C)ccnc3C(C)C)c3nc(-c4c(O)cccc4F)c(F)cc23)C(C)C1 (stereo not drawn) + COC1C(OC(N)=O)C(O)C(Oc2ccc3c(O)c(NC(=O)c4ccc(O)c(CC=C(C)C)c4)c(=O)oc3c2C)OC1(C)C ) = 110
